Target: Human immunodeficiency virus type 1 integrase (Human immunodeficiency virus 1)
Assay: Inhibitory concentration to inhibit HIV-1 integrase by 3' -processing method
pIC50: −log10 of the molar value.
property: pIC50

* CC1=NN(c2ccccc2)C(=O)C1/N=N/c1ccc(S(=O)(=O)Nc2ncccn2)cc1 (stereo not drawn) | < 3.70

INPUT: Requested read-out pIC50, target or system Human immunodeficiency virus type 1 integrase (Human immunodeficiency virus 1), entry NNS(=O)(=O)c1ccc(OCC(=O)O)cc1
OUTPUT: 5.09

INPUT: Give recorded pIC50 with Human immunodeficiency virus type 1 integrase (Human immunodeficiency virus 1) for the following molecule: CCOC(=O)COc1ccc(S(=O)(=O)c2ccc(OCC(=O)OCC)cc2)cc1
OUTPUT: < 3.70

INPUT: Under Human immunodeficiency virus type 1 integrase (Human immunodeficiency virus 1): pIC50 value of O=C(Nc1ccc(S(=O)(=O)Nc2ccc(/N=N/c3ccccc3)cc2)cc1)C(Sc1[nH]cnc2ncnc1-2)Sc1[nH]cnc2ncnc1-2 ?
OUTPUT: 3.85

----------
Biological target: Human immunodeficiency virus type 1 integrase (Human immunodeficiency virus 1)
Assay: Inhibitory concentration against HIV-1 integrase by strand transfer method
property: IC50

INPUT: Bench note: what IC50 did CCOC(=O)N(CCCCCCNC(c1ccccc1)S(=O)(=O)O)c1ccccc1 (stereo not given) show?
OUTPUT: > 200 µM

INPUT: Fill in the blank: the reported IC50 of CC1=NN(c2ccccc2)C(=O)C1/N=N/c1ccc(S(=O)(=O)Nc2ccccn2)cc1 (stereo not given) is ____.
OUTPUT: > 200 µM

INPUT: Fill in the blank: the reported IC50 of C=C1CC(c2ccc(S(=O)(=O)N3CCOCC3)cc2)OC1=O (stereo not given) is ____.
OUTPUT: > 200 µM

INPUT: Please look up its IC50: CC(=O)Nc1ccc(N)c2cc(S(=O)(=O)O)ccc12
OUTPUT: 2.7 µM

----------
Target: Human immunodeficiency virus type 1 integrase (Human immunodeficiency virus 1)
Experiment: Inhibitory concentration to inhibit HIV-1 integrase by 3' -processing method
property: IC50

INPUT: So what IC50 did CC1=NN(c2ccccc2)C(=O)C1/N=N/c1ccc(S(N)(=O)=O)cc1 (stereo not given) get with Human immunodeficiency virus type 1 integrase (Human immunodeficiency virus 1)?
OUTPUT: > 200 µM

INPUT: Entry NS(=O)(=O)c1ccc(NC=C2C(=O)N(c3ccccc3)N(c3ccccc3)C2=O)cc1 , system Human immunodeficiency virus type 1 integrase (Human immunodeficiency virus 1): what IC50 was measured?
OUTPUT: > 200 µM

INPUT: Which measured IC50 belongs to Nc1nc(N)c(/N=N/c2ccc(S(=O)(=O)NC(=O)c3ccccc3)cc2)c(O)n1 , tested on Human immunodeficiency virus type 1 integrase (Human immunodeficiency virus 1)?
OUTPUT: 120 µM

----------
Biological target: Human immunodeficiency virus type 1 integrase (Human immunodeficiency virus 1)
Assay: Inhibitory concentration required to inhibit HIV-1 integrase by strand transfer method
property: pIC50
Worth noting: pIC50 values are minus log10 of concentrations stated in mol/L.

INPUT: What pIC50 value was documented for this compound, CC1=NN(c2ccccc2)C(=O)C1/N=N/c1ccc(S(=O)(=O)Nc2scc(C)c2C)cc1 (stereo unspecified) ?
OUTPUT: 4.01

----------
Target: Human immunodeficiency virus type 1 integrase (Human immunodeficiency virus 1, UniProt Q7ZJM1)
Sequence (Q7ZJM1 whole entry): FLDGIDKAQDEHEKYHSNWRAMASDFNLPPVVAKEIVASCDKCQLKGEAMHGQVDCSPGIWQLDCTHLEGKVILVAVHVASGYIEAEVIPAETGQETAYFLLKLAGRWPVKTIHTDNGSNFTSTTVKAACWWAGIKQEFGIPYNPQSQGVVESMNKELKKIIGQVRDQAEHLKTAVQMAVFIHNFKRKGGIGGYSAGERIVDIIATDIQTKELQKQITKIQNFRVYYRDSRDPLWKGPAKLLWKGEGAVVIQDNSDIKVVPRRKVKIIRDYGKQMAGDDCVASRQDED
Assay: Inhibitory concentration against HIV-1 integrase by strand transfer method
pIC50: −log10 of the molar value.
property: pIC50

• Cc1ccnc(NS(=O)(=O)c2ccc(NC(=O)Nc3ccc(Cl)c(C(F)(F)F)c3)cc2)n1 = 4.10
• CC1=NN(c2ccccc2)C(=O)C1/N=N/c1ccc(S(=O)(=O)Nc2nnc(C)s2)cc1 (centres undefined) = 4.11
• Cc1cc(C)nc(NS(=O)(=O)c2ccc(NC(=O)c3cccn4c(=O)c5ccccc5nc34)cc2)n1 = 4.35
• CC(=O)C1(/N=N/c2ccc(S(=O)(=O)Nc3nnc(C)s3)cc2)CCOC1=O (centres undefined) = 3.75
• O=C(Nc1ccc(S(=O)(=O)Nc2ccc(/N=N/c3ccccc3)cc2)cc1)C(Sc1[nH]cnc2ncnc1-2)Sc1[nH]cnc2ncnc1-2 = 3.95

[P] Cc1cc(C)nc(NS(=O)(=O)c2ccc(NC(=O)c3cccc4c(N)c5ccccc5nc34)cc2)n1
[Q] NC1=NNC(=O)C1/N=N/c1ccc(S(=O)(=O)Nc2nccs2)cc1 (centres undefined)
INPUT: // pick min by pIC50: P , Q Give the label of your selection.
OUTPUT: Q
(Q: 4.21, P: 4.86)
